Target: MGL (Rattus norvegicus)
Construct: one g rat brain was homogenized using a Polytron homogenizer; from tissue; host or cells: rat brain homogenate
Sequence (Q8R431 whole entry): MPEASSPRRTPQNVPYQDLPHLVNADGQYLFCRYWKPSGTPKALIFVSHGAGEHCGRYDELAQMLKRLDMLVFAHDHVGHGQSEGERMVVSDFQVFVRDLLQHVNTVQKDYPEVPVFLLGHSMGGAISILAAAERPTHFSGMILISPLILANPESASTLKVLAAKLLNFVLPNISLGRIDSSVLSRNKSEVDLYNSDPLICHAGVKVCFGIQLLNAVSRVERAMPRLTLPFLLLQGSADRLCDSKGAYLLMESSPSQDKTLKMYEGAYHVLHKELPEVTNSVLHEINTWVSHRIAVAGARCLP
Experiment: 2-AG accumulation assay in rat brain homogenate
Type: biochemical
Settings: rat brain homogenate; compound 1 μM; 2-AG accumulation as percent of vehicle; read-out: Rat Brain 2AG % VehCntrl (%) @ 1 μM
PROPERTY_MEASURED: 2-AG accumulation, % of vehicle control at 1 µM (%)

> print(dat)
                                   compound  observed.value
1  O=C(c1cscn1)N1CC(N2CCN(C(=O)c3cc4cc(C(F)(F)F)ccc4s3)CC2)C1             326
2  N#Cc1cccc(-n2ccc3cc(C(=O)N4CC(N5CCN(C(=O)c6nccs6)CC5)C4)ccc32)c1             819
3  O=C(c1ccccc1)N1CCN(C2CN(C(=O)c3sc4cc(C(F)(F)F)ccc4c3Cl)C2)CC1             223
4  O=C(c1ccc2c(c1)CCN(C(=O)C1CCC(C(F)(F)F)CC1)C2)N1CC(N2CCN(C(=O)c3nccs3)CC2)C1 (centres unmarked)             756
5  O=C(c1ccc2c(c1)CCCN2S(=O)(=O)c1cccc(F)c1)N1CC(N2CCN(C(=O)c3nccs3)CC2)C1             434
6  O=C(c1cscn1)N1CCN(C2CN(C(=O)c3sc4cc(Br)ccc4c3Cl)C2)CC1             291
7  O=C(c1ccc2c(c1)CCN2c1ccc(F)cc1)N1CC(N2CCN(C(=O)c3cscn3)CC2)C1             622
8  Cc1cc(C(=O)N2CC(N3CCN(C(=O)c4ccccc4)CC3)C2)ccc1-c1ccccc1             165
